# target-or-test-system: Cytochrome P450 2D6 (Homo sapiens) (UniProt P10635)
# Sequence (P10635 whole entry, looked up): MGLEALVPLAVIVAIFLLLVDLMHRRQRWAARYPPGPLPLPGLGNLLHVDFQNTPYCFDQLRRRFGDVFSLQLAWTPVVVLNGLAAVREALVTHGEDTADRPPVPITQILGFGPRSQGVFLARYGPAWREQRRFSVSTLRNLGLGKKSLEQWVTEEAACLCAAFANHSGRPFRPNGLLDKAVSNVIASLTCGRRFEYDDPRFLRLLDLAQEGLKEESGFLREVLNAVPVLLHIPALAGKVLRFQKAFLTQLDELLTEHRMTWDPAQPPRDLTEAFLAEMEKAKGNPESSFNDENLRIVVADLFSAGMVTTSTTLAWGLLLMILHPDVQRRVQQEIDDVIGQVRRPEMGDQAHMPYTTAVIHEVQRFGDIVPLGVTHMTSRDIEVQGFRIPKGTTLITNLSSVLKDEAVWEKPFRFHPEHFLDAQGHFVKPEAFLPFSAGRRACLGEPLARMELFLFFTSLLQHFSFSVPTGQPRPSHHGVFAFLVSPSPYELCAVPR
# procedure-text: Cytochrome P450 family 2 subfamily D member 6 (CYP2D6) small molecule antagonists: luciferase biochemical (cell-free) qHTS assay (AID 1645840); further: nearly all actives have a fitted effect of over 55% in size; further: potency means the concentration at half of the fitted maximal effect
# assay-context: P450-Glo CYP2D6 enzyme, luciferin luminescence, 1 h; series mostly up to 57.4 µM
Records with an inconclusive call do not appear. Calls of active or inactive are those of the source. The call rests on the fitted dose curve; in most records, active means well fitted inhibition curve with a large enough effect in the repeat runs; inconclusive means weak or mixed curves; inactive means flat fitted curve, though single readings scatter.
property-measured: Potency

{"columns": ["smiles", "property-measured", "value-measured"],
 "data": [
  ["C[C@@H](c1ccccc1)N(C(N)=NC#N)c1cccc2ncccc12", "Potency", "inactive"],
  ["Cc1c(Cc2ccc3ccccc3n2)c2cc(F)ccc2n1CC(=O)O", "Potency", "inactive"],
  ["Nc1ncnc2c1ncn2[C@H]1O[C@@H](C(=O)N2CCN(CC(=O)Nc3cccc4c3CNC4=O)CC2)[C@H](O)[C@@H]1O", "Potency", "inactive"],
  ["CC[C@@H](C)[C@H](N)C(=O)N1Cc2ccccc2C1", "Potency", "13.5 µM (active)"],
  ["Cc1cccc(-c2nn3c(c2-c2ccnc4ccc(C(N)=O)cc24)CCC3)n1", "Potency", "inactive"]
]}

###

# Tested on: HACAT
# procedure-text: qHTS assay to identify novel small-molecules to repurpose for Merkel cell carcinoma treatment (AID 1296009); further: nearly all actives have a fitted effect of over 60% in size
# assay-context: MCC and control cell lines, CellTiter-Glo viability, 72 h; at 44.8 µM (top of the series) unless noted
# Text: MCC is a rare and aggressive neuroendocrine skin cancer with limited treatment options. Approximately 80% of MCCs have the Merkel cell polyomavirus (MCPyV) DNA integrated into the host genome (virus-positive: VP-MCC) and viral oncogenes drive oncogenesis. The remaining MCCs are virus-negative (VN-MCC) and are caused by UV mutagenesis. […] Using cell viability as a readout (CellTiter-Glo assay) we found both overlapping and distinct drugs that can be repurposed for the treatment of VP-MCC and VN-MCC. […]
Results filed as inconclusive are left out. Activity calls are given as the source filed them. Calls come from the whole dose curve; as a rule, active = well fitted inhibition curve with a large enough effect; inconclusive = small, poorly fitted or top-dose-only effect; inactive = flat fitted curve, though single readings scatter.

{"columns": ["compound", "target-or-test-system", "outcome"],
 "data": [
  ["CC1OC(O[C@H]2CC[C@@]3(C)C(CC[C@]4(C)C3CC=C3C5CC(C)(C)CC[C@]5(C(=O)OC5OC(CO)C(OC6OCC(OC7OCC(O)C(O)C7O)C(O)C6O)C(O)C5O)CC[C@]34C)C2(C)C)C(O)C(O)C1OC1OC(CO)C(O)C(OC2OC(CO)C(O)C(O)C2O)C1O (some centres not stated)", "HACAT", "inactive [at 9.27 µM]"],
  ["C=C1C(OC(C)=O)C(=O)C2C(C)(C)C(O)CCC2(C)C1CC(OC(C)=O)/C(C)=C/COC(C)=O (configuration not stated)", "HACAT", "inactive [at 17.4 µM]"],
  ["CC1CCC2(C(=O)O)CCC3(C)C(=CCC4C5(C)CCC(O)C(C)(C(=O)O)C5CCC43C)C2C1(C)O (configuration not stated)", "HACAT", "inactive [at 17.4 µM]"],
  ["Cc1onc(-c2ccccc2Cl)c1C(=O)N(C)c1ccc(Cl)cc1", "HACAT", "inactive"],
  ["CC1(C)CCC[C@@]2(C)[C@H]1[C@H](O)C=C(CO)[C@]2(O)CO", "HACAT", "inactive"],
  ["COc1cccc(Cn2ncc3c4sc(S(C)=O)cc4n(C)c3c2=O)c1 (configuration not stated)", "HACAT", "inactive"],
  ["NC1=NC2(c3cc(NC(=O)c4ccc(F)cn4)ccc3F)COCC2CS1 (configuration not stated)", "HACAT", "inactive"],
  ["COc1cc(C(C)=O)ccc1O[C@@H]1O[C@H](CO)[C@@H](O)[C@H](O)[C@H]1O", "HACAT", "inactive"],
  ["COc1cc(Nc2ccc([N+](=O)[O-])cc2C(=O)O)cc2ccccc12", "HACAT", "inactive"],
  ["CC1(C)CC[C@]2(C(=O)O[C@@H]3O[C@H](CO)[C@@H](O)[C@H](O)[C@H]3O)CC[C@]3(C)C(=CCC4[C@@]5(C)CC[C@H](O[C@@H]6O[C@H](C(=O)O)[C@@H](O[C@@H]7O[C@H](CO)[C@@H](O)[C@H](O)[C@H]7O)[C@H](O)[C@H]6O)C(C)(C)C5CC[C@]43C)C2C1 (some centres not stated)", "HACAT", "inactive [at 9.27 µM]"],
  ["COc1ccc(C2(O)c3c(ccc4c3OC(C)(CCC=C(C)C)C=C4)NC(=O)C2OC)cc1 (configuration not stated)", "HACAT", "inactive [at 17.4 µM]"],
  ["CC(=O)OC(C)(C)/C=C/C(=O)[C@](C)(O)C1[C@H](O)C[C@@]2(C)[C@@H]3CC=C4[C@@H](C[C@H](O[C@@H]5O[C@H](CO)[C@@H](O)[C@H](O)[C@H]5O)C(=O)C4(C)C)[C@]3(C)C(=O)C[C@]12C (some centres not stated)", "HACAT", "inactive [at 17.4 µM]"],
  ["O=C(O)CC(CCc1ccccc1)OC1OC(CO)C(O)C(O)C1O (configuration not stated)", "HACAT", "inactive"],
  ["Cc1cn(-c2cc(NC(=O)c3ccc(C)c(Nc4nccc(-c5cnccn5)n4)c3)cc(C(F)(F)F)c2)cn1", "HACAT", "inactive"],
  ["CC1CC(=O)C2=C(O1)OC1(C)CCC3C(C)(C)C4OC4C(=O)C3(C)C1C2 (configuration not stated)", "HACAT", "inactive"],
  ["CC1(C)CC[C@]2(C(=O)O[C@@H]3O[C@H](CO[C@@H]4O[C@H](CO[C@@H]5O[C@H](CO)[C@H](O)[C@H](O)[C@H]5O)[C@@H](O)[C@H](O)[C@H]4O)[C@@H](O)[C@H](O[C@@H]4O[C@H](CO)[C@@H](O)[C@H](O)[C@H]4O)[C@H]3O)[C@H](O)C[C@]3(C)C(=CCC4[C@@]5(C)CC[C@H](O[C@@H]6OC[C@@H](O)[C@H](O)[C@H]6O)[C@@](C)(C(=O)O)C5CC[C@]43C)[C@@H]2C1 (some centres not stated)", "HACAT", "inactive [at 9.27 µM]"],
  ["COC(=O)[C@]1(Cc2ccc(O)c(CC=C(C)C)c2)OC(=O)C(O)=C1c1ccc(O)cc1", "HACAT", "inactive [at 17.4 µM]"],
  ["C[C@@H]1O[C@@H](O[C@H]2[C@H](Oc3cc(O)c(C(=O)CCc4ccc(O)cc4)c(O)c3)O[C@H](CO)[C@@H](O)[C@@H]2O)[C@H](O)[C@H](O)[C@H]1O", "HACAT", "inactive"],
  ["OC[C@H]1O[C@@H](O[C@H]2[C@H](O)[C@@H](CO)O[C@@H](OCc3ccccc3)[C@@H]2O[C@@H]2OC[C@](O)(CO)[C@H]2O)[C@H](O)[C@@H](O)[C@@H]1O", "HACAT", "inactive [at 17.4 µM]"],
  ["CC12CC34CC(O)C5C(CO)(CO)CC(=O)CC5(C)C3CC1C2C4 (configuration not stated)", "HACAT", "inactive"],
  ["C=C(C)[C@@H]1CC[C@]2(C)CC[C@]3(C)C(CCC4[C@@]5(C)CC[C@H](O)C(C)(C)C5CC[C@]43C)C12 (some centres not stated)", "HACAT", "inactive [at 17.4 µM]"],
  ["CC(=O)O[C@@H]1C[C@@H](C)[C@](O)(CCC2=CC(=O)OC2)[C@@]2(C)CCCC(C)(C)C12 (some centres not stated)", "HACAT", "inactive"],
  ["O=C(O)Cc1cn([C@@H]2OC[C@@H](O[C@@H]3O[C@H](CO)[C@@H](O)[C@H](O)[C@H]3O)[C@H](O)[C@H]2O[C@@H]2O[C@H](CO)[C@@H](O)[C@H](O)[C@H]2O)c2ccccc12", "HACAT", "inactive [at 17.4 µM]"],
  ["C=C1CCC2[C@](C)(CCC[C@]2(C)C(=O)O)[C@H]1CC/C(C)=C/C(=O)OC (some centres not stated)", "HACAT", "inactive"],
  ["C[C@H]1CC[C@@]2(OC1)O[C@H]1CC3C4CC[C@H]5C[C@@H](O)CC[C@]5(C)C4CC(=O)[C@]3(C)[C@H]1[C@@H]2C (some centres not stated)", "HACAT", "inactive [at 17.4 µM]"],
  ["COc1cc(/C=C/C(=O)OC[C@H]2O[C@@H](OC3CC(C)=C(C(=O)O)C(C)(C)C3)[C@H](O)[C@@H](O)[C@@H]2O)cc(OC)c1O (some centres not stated)", "HACAT", "inactive [at 17.4 µM]"],
  ["N#Cc1cccc(-c2nc(-c3cccnc3)no2)c1", "HACAT", "inactive [at 17.4 µM]"]
]}

###

# Tested on: HEK293
# procedure-text: Cytotoxic Profiling of Annotated Libraries Using Quantitative High-Throughput Screening (AID 1296008); further: on the % scale 0 is the no-effect control and ±100 the full control effect; nearly all actives have a fitted effect of over 60% in size
# assay-context: Five cell lines viability, CellTiter-Glo ATP luminescence, 48-72 h; hits give low values
Inconclusive results are not listed. Active and inactive are the calls of the source. Calls come from the whole dose curve; as a rule, active = well fitted inhibition curve with a large enough effect; inconclusive = small, poorly fitted or top-dose-only effect; inactive = flat fitted curve, though single readings scatter.

{"columns": ["compound", "max response"],
 "data": [
  ["C=CC(C)(O)C1CC2C3(C)CCCC(C)(C)C3C(O)C(O)C2(C)O1 (centres undefined)", "3.38% (inactive)"],
  ["Cc1cc(-c2nncc3c(C(C)(C)C)c(OCc4ncnn4C)nn23)no1", "-4.36% (inactive)"],
  ["Nc1ncnc2c1C(=O)N(c1ccc(C3CCC(CC(=O)O)CC3)cc1)CCO2 (centres undefined)", "-15.1% (inactive)"],
  ["COC(=O)C(CC1(O)c2ccccc2N2C(=O)C(CC(C)C)NC21)n1cnc2ccccc2c1=O (centres undefined)", "-5.33% (inactive)"],
  ["NC[C@H]1CCC[C@@H](CNC(=O)[C@@H](Cc2c[nH]c3ccccc23)NC(=O)N2CCC3(C=Cc4ccccc43)CC2)C1", "-6.44% (inactive)"],
  ["CCC/C=C1\\OC(=O)C2=C1CCC(O)C2O (centres undefined)", "1.42% (inactive)"],
  ["C/C=C/C=C/C(O)=C1/C(=O)[C@]2(C)C(=O)[C@@](C)(O)[C@H]1[C@H]([C@@]1(C)OC(=O)C(C)=C1O)[C@H]2C(=O)CC/C=C/C", "-3.93% (inactive)"],
  ["Cc1c(-c2ccc3c(c2)OCO3)oc2ccc(C(O)C(C)O)cc12 (centres undefined)", "-10.1% (inactive)"],
  ["C/C=C(\\C)C(=O)OC1CC2C(CC=C3CC(OC4CC(OC)C(OC5CC(OC)C(OC6CC(OC)C(OC7CC(OC)C(OC8CC(OC)C(OC9OC(CO)C(O)C(O)C9O)C(C)O8)C(C)O7)C(C)O6)C(C)O5)C(C)O4)CCC32C)C2(O)CCC(C(C)=O)C12C (centres undefined)", "-12.4% (inactive)"]
]}
